Assay Remarks: AUC (0 to last) in human at 750 mg/kg, po measured on day 10
Assay type: ADME, organism-based
Design: time 0 - last, dose 750 mg/kg, route oral
Assay Context: plasma
Measure Name: AUC(0-t) (ng·h/mL)
The reply should contain only the number, in ng·h/mL.

Exercise: Using the record for `COc1c(N2C[C@@H](C)C[C@H](N)C2)ccc2c(=O)c(C(=O)O)cn(C3CC3)c12` , report its AUC(0-t).
Key: 69300

====

Assay Remarks: Clearance in human assessed as compound recovered in urine at 500 mg/kg, po measured on day 16 up to 24 hrs post dose
Format: ADME, organism-based
Set-up: dose 500 mg/kg, route oral
Assay Context: read-out: amount in urine
Measure Name: dose excreted at 24 h

Exercise: Name the recorded dose excreted at 24 h for `COc1c(N2C[C@@H](C)C[C@H](N)C2)ccc2c(=O)c(C(=O)O)cn(C3CC3)c12` .
Key: 30.5%

====

Assay Remarks: Renal clearance in human at 1000 […], po measured on day 10
Type: ADME, organism-based, Kidney
Parameters: route oral
Assay Context: in vivo, read-out: CL_renal (converted)
Measure Name: CL renal (mL/min)
The answer is to be given in mL/min; state only the numeric part.

Exercise: Which CL renal is listed for `COc1c(N2C[C@@H](C)C[C@H](N)C2)ccc2c(=O)c(C(=O)O)cn(C3CC3)c12` ?
Key: 115

====

Assay Remarks: AUC (0 to 24 hrs) in human at 500 mg/kg, po measured on day 1
Assay type: ADME, organism-based
Design: time < 24 hr, dose 500 mg/kg, route oral
Assay Context: plasma
Measure Name: AUC(0-t) at 24 h (ng·h/mL)
Report the value in ng·h/mL with no unit label.

Exercise: Can you share its AUC(0-t) at 24 h? I mean this molecule: `COc1c(N2C[C@@H](C)C[C@H](N)C2)ccc2c(=O)c(C(=O)O)cn(C3CC3)c12`
Key: 31600

====

Assay Remarks: Clearance in human assessed as compound recovered in urine at 750 mg/kg, po measured on day 10 up to 24 hrs post dose
Assay type: ADME, organism-based
Parameters: dose 750 mg/kg, route oral
Assay Context: read-out: amount in urine
Measure Name: dose excreted at 24 h
Quick note: number first, unit second.

Exercise: Which dose excreted at 24 h value belongs to `COc1c(N2C[C@@H](C)C[C@H](N)C2)ccc2c(=O)c(C(=O)O)cn(C3CC3)c12` ?
Key: 41.8%

====

Assay Remarks: Renal clearance in human at 250 […], po measured on day 1
Assay type: ADME, organism-based, Kidney
Parameters: route oral
Assay Context: in vivo, read-out: CL_renal (converted)
Measure Name: CL renal

Exercise: State the recorded CL renal for this entry: `COc1c(N2C[C@@H](C)C[C@H](N)C2)ccc2c(=O)c(C(=O)O)cn(C3CC3)c12`
Key: 115 mL/min

====

Assay Remarks: Terminal half life in human at 750 […], po measured on day 10
Format: ADME, organism-based
Design: route oral
Assay Context: in vivo, read-out: beta t1/2 (converted)
Measure Name: half-life (min)
Note: unit min is implicit; provide only the numeric part.

Exercise: Which half-life is listed for `COc1c(N2C[C@@H](C)C[C@H](N)C2)ccc2c(=O)c(C(=O)O)cn(C3CC3)c12` ?
Key: 1180
